experiment.summary: in vivo
test.settings: female, Sprague-Dawley, rat, plasma, po, 0.59 mg/kg, AUC(0-t), intact female rats, oral 0.59 mg/kg
observation.type: AUC(0-t) (ng·h/mL)
Use ng·h/mL as the unit, but write only the number.

Would you mind telling me what AUC(0-t) value was observed for O=C1C[C@@H]2OCC=C3CN4CC[C@]56c7ccccc7N1[C@H]5[C@H]2[C@H]3C[C@H]46 [strychnine, Strychnine nitrate] ?
409

---

experiment.summary: in vivo
test.settings: female, Sprague-Dawley, rat, plasma, po, 0.59 mg/kg, AUC(0-∞), intact female rats, oral 0.59 mg/kg
observation.type: AUC(0-inf) (ng·h/mL)
// return numeric value only (unit: ng·h/mL, not printed)

What does the record list as AUC(0-inf) for O=C1C[C@@H]2OCC=C3CN4CC[C@]56c7ccccc7N1[C@H]5[C@H]2[C@H]3C[C@H]46 [strychnine, Strychnine nitrate] ?
403

---

experiment.summary: in vivo
test.settings: female, Sprague-Dawley, rat, plasma, po, 0.59 mg/kg, Cmax, GDX female rats, oral 0.59 mg/kg
observation.type: Cmax (ng/mL)
Please reply with the bare figure in ng/mL and do not write the unit itself.

Endpoint output: Cmax of O=C1C[C@@H]2OCC=C3CN4CC[C@]56c7ccccc7N1[C@H]5[C@H]2[C@H]3C[C@H]46 [strychnine, Strychnine nitrate] . Value?
48.1

---

experiment.summary: in vivo
test.settings: male, Sprague-Dawley, rat, plasma, po, 0.59 mg/kg, AUC(0-∞), GDX male rats, oral 0.59 mg/kg
observation.type: AUC(0-inf) (ng·h/mL)
The response must be a number in ng·h/mL with no trailing unit.

Entry O=C1C[C@@H]2OCC=C3CN4CC[C@]56c7ccccc7N1[C@H]5[C@H]2[C@H]3C[C@H]46 [strychnine, Strychnine nitrate] : reported AUC(0-inf) = ?
153

---

experiment.summary: in vivo
test.settings: male, Sprague-Dawley, rat, plasma, po, 0.59 mg/kg, Tmax, GDX male rats, oral 0.59 mg/kg
observation.type: Tmax (h)
Please give a number only; it is taken to be in h.

# Tmax lookup, item O=C1C[C@@H]2OCC=C3CN4CC[C@]56c7ccccc7N1[C@H]5[C@H]2[C@H]3C[C@H]46 [strychnine, Strychnine nitrate]
1

---

experiment.summary: in vivo
test.settings: male, Sprague-Dawley, rat, plasma, po, 0.59 mg/kg, Cmax, GDX male rats, oral 0.59 mg/kg
observation.type: Cmax (ng/mL)
State the answer as a number, implicitly in ng/mL.

Bench note: what Cmax did O=C1C[C@@H]2OCC=C3CN4CC[C@]56c7ccccc7N1[C@H]5[C@H]2[C@H]3C[C@H]46 [strychnine, Strychnine nitrate] show?
13

---

experiment.summary: in vivo
test.settings: male, Sprague-Dawley, rat, plasma, po, 0.59 mg/kg, Cmax, intact male rats, oral 0.59 mg/kg
observation.type: Cmax
Reply with a number, then the unit it belongs to.

Can you look up the measured Cmax of O=C1C[C@@H]2OCC=C3CN4CC[C@]56c7ccccc7N1[C@H]5[C@H]2[C@H]3C[C@H]46 [strychnine, Strychnine nitrate] for me?
33.4 ng/mL

---

experiment.summary: in vivo
test.settings: male, Sprague-Dawley, rat, plasma, po, 0.59 mg/kg, AUC(0-t), GDX male rats, oral 0.59 mg/kg
observation.type: AUC(0-t) (ng·h/mL)
Quick note: give the figure in ng·h/mL, leave out the unit.

# input compound: O=C1C[C@@H]2OCC=C3CN4CC[C@]56c7ccccc7N1[C@H]5[C@H]2[C@H]3C[C@H]46 [strychnine, Strychnine nitrate] ; wanted: its AUC(0-t)
152

---

experiment.summary: in vivo
test.settings: female, Sprague-Dawley, rat, plasma, po, 0.59 mg/kg, AUC(0-t), GDX female rats, oral 0.59 mg/kg
Source text: In detail, 6 intact 8-week-old male and female Sprague-Dawley (SD) rats, as well as 6 intact 5-week-old male and female SD rats were purchased from Changyang Xishan Breeding Farm (Beijing Changyang Xishan Breeding Farm, China). All rats were provided standard chow and freely-available drinking water. They were acclimatized for 1 week and fasted overnight before drug administration. The rats were divided into intact and GDX groups, with 6 males and 6 females in each group. […]
observation.type: AUC(0-t) (ng·h/mL)
Write the number in ng·h/mL without appending the unit.

// AUC(0-t) lookup, key: O=C1C[C@@H]2OCC=C3CN4CC[C@]56c7ccccc7N1[C@H]5[C@H]2[C@H]3C[C@H]46 [strychnine, Strychnine nitrate]
489

---

experiment.summary: in vivo
test.settings: male, Sprague-Dawley, rat, plasma, po, 0.59 mg/kg, t1/2, GDX male rats, oral 0.59 mg/kg
observation.type: half-life (min)
Write the number in min without appending the unit.

For the molecule shown here, O=C1C[C@@H]2OCC=C3CN4CC[C@]56c7ccccc7N1[C@H]5[C@H]2[C@H]3C[C@H]46 [strychnine, Strychnine nitrate] , give the reported half-life.
461

---

experiment.summary: in vivo
test.settings: male, Sprague-Dawley, rat, plasma, po, 0.59 mg/kg, t1/2, intact male rats, oral 0.59 mg/kg
observation.type: half-life

Entry under review: O=C1C[C@@H]2OCC=C3CN4CC[C@]56c7ccccc7N1[C@H]5[C@H]2[C@H]3C[C@H]46 [strychnine, Strychnine nitrate] . Reported half-life?
3.84 h

---

experiment.summary: in vivo
test.settings: male, Sprague-Dawley, rat, plasma, po, 0.59 mg/kg, AUC(0-∞), intact male rats, oral 0.59 mg/kg
observation.type: AUC(0-inf) (µg·h/mL)
Reply numerically in µg·h/mL, unit not repeated.

Entry O=C1C[C@@H]2OCC=C3CN4CC[C@]56c7ccccc7N1[C@H]5[C@H]2[C@H]3C[C@H]46 [strychnine, Strychnine nitrate] has what AUC(0-inf)?
0.097

---

experiment.summary: in vivo
test.settings: female, Sprague-Dawley, rat, plasma, po, 0.59 mg/kg, Cmax, intact female rats, oral 0.59 mg/kg
observation.type: Cmax

Recorded Cmax of O=C1C[C@@H]2OCC=C3CN4CC[C@]56c7ccccc7N1[C@H]5[C@H]2[C@H]3C[C@H]46 [strychnine, Strychnine nitrate] , please.
116 ng/mL

---

experiment.summary: in vivo
test.settings: male, Sprague-Dawley, rat, plasma, po, 0.59 mg/kg, Tmax
observation.type: Tmax

What does the data say about its Tmax? Entry: O=C1C[C@@H]2OCC=C3CN4CC[C@]56c7ccccc7N1[C@H]5[C@H]2[C@H]3C[C@H]46 [strychnine, Strychnine nitrate]
34.8 min

---

experiment.summary: in vivo
test.settings: female, Sprague-Dawley, rat, plasma, po, 0.59 mg/kg, Tmax, GDX female rats, oral 0.59 mg/kg
Excerpt: In detail, 6 intact 8-week-old male and female Sprague-Dawley (SD) rats, as well as 6 intact 5-week-old male and female SD rats were purchased from Changyang Xishan Breeding Farm (Beijing Changyang Xishan Breeding Farm, China). All rats were provided standard chow and freely-available drinking water. They were acclimatized for 1 week and fasted overnight before drug administration. The rats were divided into intact and GDX groups, with 6 males and 6 females in each group. […]
observation.type: Tmax (h)
Please give a number only; it is taken to be in h.

Which Tmax reading was recorded for the compound O=C1C[C@@H]2OCC=C3CN4CC[C@]56c7ccccc7N1[C@H]5[C@H]2[C@H]3C[C@H]46 [strychnine, Strychnine nitrate] ?
1.6

---

experiment.summary: in vivo
test.settings: female, Sprague-Dawley, rat, plasma, po, 0.59 mg/kg, t1/2, intact female rats, oral 0.59 mg/kg
Text: In detail, 6 intact 8-week-old male and female Sprague-Dawley (SD) rats, as well as 6 intact 5-week-old male and female SD rats were purchased from Changyang Xishan Breeding Farm (Beijing Changyang Xishan Breeding Farm, China). All rats were provided standard chow and freely-available drinking water. They were acclimatized for 1 week and fasted overnight before drug administration. The rats were divided into intact and GDX groups, with 6 males and 6 females in each group. […]
observation.type: half-life (h)
Answer in h, number only, no unit symbol.

# input compound: O=C1C[C@@H]2OCC=C3CN4CC[C@]56c7ccccc7N1[C@H]5[C@H]2[C@H]3C[C@H]46 [strychnine, Strychnine nitrate] ; wanted: its half-life
5.7

---

experiment.summary: in vivo
test.settings: female, Sprague-Dawley, rat, plasma, po, 0.59 mg/kg, Tmax
From the text: In detail, 6 intact 8-week-old male and female Sprague-Dawley (SD) rats, as well as 6 intact 5-week-old male and female SD rats were purchased from Changyang Xishan Breeding Farm (Beijing Changyang Xishan Breeding Farm, China). All rats were provided standard chow and freely-available drinking water. They were acclimatized for 1 week and fasted overnight before drug administration. The rats were divided into intact and GDX groups, with 6 males and 6 females in each group. […]
observation.type: Tmax (min)
Dear colleague, please return just the value in min, with no unit written.

Give its Tmax value. Item: O=C1C[C@@H]2OCC=C3CN4CC[C@]56c7ccccc7N1[C@H]5[C@H]2[C@H]3C[C@H]46 [strychnine, Strychnine nitrate]
37.8

---

experiment.summary: in vivo
test.settings: female, Sprague-Dawley, rat, plasma, po, 0.59 mg/kg, t1/2, GDX female rats, oral 0.59 mg/kg
observation.type: half-life (h)
Just the number in h, nothing appended.

Look up half-life for this compound: O=C1C[C@@H]2OCC=C3CN4CC[C@]56c7ccccc7N1[C@H]5[C@H]2[C@H]3C[C@H]46 [strychnine, Strychnine nitrate]
9.06
